Test system: Enterococcus faecium
assay.method.text: Antimicrobial activity against daptomycin-resistant Enterococcus faecium ATCC 6569 incubated anaerobically at 37 degC for 48 hrs by agar dilution method
Assay type: functional
settings: ATCC 6569, 48 h
quantity.kind: MIC

May I ask what MIC has been recorded for "CCCCC[C@H]1CC[C@H](C(=O)N[C@@H](Cc2c[nH]c3ccccc23)C(=O)N[C@@H](CC(N)=O)C(=O)N[C@@H](CC(=O)O)C(=O)N[C@@H]2C(=O)NCC(=O)N[C@@H](CCCN)C(=O)N[C@H](CC(=O)O)C(=O)N[C@H](C)C(=O)N[C@@H](CC(=O)O)C(=O)NCC(=O)N[C@H](CO)C(=O)N[C@@H]([C@@H](C)CC(=O)O)C(=O)N[C@@H](CC(=O)c3ccccc3N)C(=O)O[C@@H]2C)CC1" ?
16 µg/mL

What measured MIC goes with CCCCCCCCCCCCCC(=O)N[C@@H](Cc1c[nH]c2ccccc12)C(=O)N[C@@H](CC(N)=O)C(=O)N[C@@H](CC(=O)O)C(=O)N[C@@H]1C(=O)NCC(=O)N[C@@H](CCCN)C(=O)NC(CC(=O)O)C(=O)N[C@H](C)C(=O)N[C@@H](CC(=O)O)C(=O)NCC(=O)N[C@H](CO)C(=O)N[C@@H]([C@@H](C)CC(=O)O)C(=O)N[C@@H](CC(=O)c2ccccc2N)C(=O)O[C@@H]1C (single isomer, unassigned) ?
4 µg/mL

GET /values?readout=MIC&item= CC(C)CCCCCCCCCC(=O)N[C@@H](Cc1c[nH]c2ccccc12)C(=O)N[C@@H](CC(N)=O)C(=O)N[C@@H](CC(=O)O)C(=O)N[C@@H]1C(=O)NCC(=O)N[C@@H](CCCN)C(=O)NC(CC(=O)O)C(=O)N[C@H](C)C(=O)N[C@@H](CC(=O)O)C(=O)NCC(=O)N[C@H](CO)C(=O)N[C@@H]([C@@H](C)CC(=O)O)C(=O)N[C@@H](CC(=O)c2ccccc2N)C(=O)O[C@@H]1C (single isomer, unassigned)
4 µg/mL

* * *

Tested on: Clostridioides difficile
assay.method.text: Antimicrobial activity against daptomycin-resistant Clostridium difficile NAP1 incubated anaerobically at 37 degC for 48 hrs by agar dilution method
Assay type: functional
settings: NAP1, 48 h
What MIC was measured for each of the following?
The reply should be a number in µg/mL, with the unit left off.

Provide the documented MIC with Clostridioides difficile as the system for "C[C@H]1NC(=O)[C@@H](CC(=O)O)NC(=O)[C@H](CCCN)NC(=O)CNC(=O)[C@@H](NC(=O)[C@H](CC(=O)O)NC(=O)[C@H](CC(N)=O)NC(=O)[C@H](Cc2c[nH]c3ccccc23)NC(=O)c2ccc(-c3ccc(Cl)cc3)cc2)[C@@H](C)OC(=O)[C@H](CC(=O)c2ccccc2N)NC(=O)[C@H]([C@@H](C)CC(=O)O)NC(=O)[C@@H](CO)NC(=O)CNC(=O)[C@H](CC(=O)O)NC1=O"
16

Item: CCCCc1ccc(/C=C(\C)C(=O)N[C@@H](Cc2c[nH]c3ccccc23)C(=O)N[C@@H](CC(N)=O)C(=O)N[C@@H](CC(=O)O)C(=O)N[C@@H]2C(=O)NCC(=O)N[C@@H](CCCN)C(=O)NC(CC(=O)O)C(=O)N[C@H](C)C(=O)N[C@@H](CC(=O)O)C(=O)NCC(=O)N[C@H](CO)C(=O)N[C@@H]([C@@H](C)CC(=O)O)C(=O)N[C@@H](CC(=O)c3ccccc3N)C(=O)O[C@@H]2C)cc1 (single isomer, unassigned) Test system: Clostridioides difficile Read-out: MIC Value: ?
2

Enter reported MIC observed with Clostridioides difficile for "CCCCC[C@H]1CC[C@H](C(=O)N[C@@H](Cc2c[nH]c3ccccc23)C(=O)N[C@@H](CC(N)=O)C(=O)N[C@@H](CC(=O)O)C(=O)N[C@@H]2C(=O)NCC(=O)N[C@@H](CCCN)C(=O)N[C@H](CC(=O)O)C(=O)N[C@H](C)C(=O)N[C@@H](CC(=O)O)C(=O)NCC(=O)N[C@H](CO)C(=O)N[C@@H]([C@@H](C)CC(=O)O)C(=O)N[C@@H](CC(=O)c3ccccc3N)C(=O)O[C@@H]2C)CC1"
0.5

Which MIC is reported with Clostridioides difficile for this entry: "CCCCCCSc1ccc(-c2csc(C(=O)N[C@@H](Cc3c[nH]c4ccccc34)C(=O)N[C@@H](CC(N)=O)C(=O)N[C@@H](CC(=O)O)C(=O)N[C@@H]3C(=O)NCC(=O)N[C@@H](CCCN)C(=O)N[C@H](CC(=O)O)C(=O)N[C@H](C)C(=O)N[C@@H](CC(=O)O)C(=O)NCC(=O)N[C@H](CO)C(=O)N[C@@H]([C@@H](C)CC(=O)O)C(=O)N[C@@H](CC(=O)c4ccccc4N)C(=O)O[C@@H]3C)c2)cc1" ?
8

Return MIC measured with Clostridioides difficile given this compound: "CCCCCCCc1ccc(C(=O)N[C@@H](Cc2c[nH]c3ccccc23)C(=O)N[C@@H](CC(N)=O)C(=O)N[C@@H](CC(=O)O)C(=O)N[C@@H]2C(=O)NCC(=O)N[C@@H](CCCN)C(=O)N[C@H](CC(=O)O)C(=O)N[C@H](C)C(=O)N[C@@H](CC(=O)O)C(=O)NCC(=O)N[C@H](CO)C(=O)N[C@@H]([C@@H](C)CC(=O)O)C(=O)N[C@@H](CC(=O)c3ccccc3N)C(=O)O[C@@H]2C)cc1"
0.5

* * *

System: Staphylococcus aureus
assay.method.text: Antimicrobial activity against daptomycin-susceptible Staphylococcus aureus ATCC 29213 incubated anaerobically at 37 degC for 48 hrs by agar dilution method
Assay type: functional
settings: ATCC 29213, 48 h
quantity.kind: MIC

Which MIC reading was recorded for the compound CCCCCCCCCCCCC(=O)N[C@@H](Cc1c[nH]c2ccccc12)C(=O)N[C@@H](CC(N)=O)C(=O)N[C@@H](CC(=O)O)C(=O)N[C@@H]1C(=O)NCC(=O)N[C@@H](CCCN)C(=O)NC(CC(=O)O)C(=O)N[C@H](C)C(=O)N[C@@H](CC(=O)O)C(=O)NCC(=O)N[C@H](CO)C(=O)N[C@@H]([C@@H](C)CC(=O)O)C(=O)N[C@@H](CC(=O)c2ccccc2N)C(=O)O[C@@H]1C (single isomer, unassigned) ?
0.5 µg/mL

What does the record list as MIC for "CCCCCCc1ccc(C(=O)N[C@@H](Cc2c[nH]c3ccccc23)C(=O)N[C@@H](CC(N)=O)C(=O)N[C@@H](CC(=O)O)C(=O)N[C@@H]2C(=O)NCC(=O)N[C@@H](CCCN)C(=O)N[C@H](CC(=O)O)C(=O)N[C@H](C)C(=O)N[C@@H](CC(=O)O)C(=O)NCC(=O)N[C@H](CO)C(=O)N[C@@H]([C@@H](C)CC(=O)O)C(=O)N[C@@H](CC(=O)c3ccccc3N)C(=O)O[C@@H]2C)cc1" ?
1 µg/mL

Give its MIC value. Item: "CCCCCCOc1ccc(-c2ccc(C(=O)N[C@@H](Cc3c[nH]c4ccccc34)C(=O)N[C@@H](CC(N)=O)C(=O)N[C@@H](CC(=O)O)C(=O)N[C@@H]3C(=O)NCC(=O)N[C@@H](CCCN)C(=O)N[C@H](CC(=O)O)C(=O)N[C@H](C)C(=O)N[C@@H](CC(=O)O)C(=O)NCC(=O)N[C@H](CO)C(=O)N[C@@H]([C@@H](C)CC(=O)O)C(=O)N[C@@H](CC(=O)c4ccccc4N)C(=O)O[C@@H]3C)cc2)cc1"
0.5 µg/mL

* * *

So I've got a bunch of compounds here, and I need their log10(MIC) values.
Tested on: Clostridioides difficile
assay.method.text: Antimicrobial activity against daptomycin-resistant Clostridium difficile NAP1 incubated anaerobically at 37 degC for 48 hrs by agar dilution method
Assay type: functional
settings: NAP1, 48 h
For clarity, the numbers are log10 values of MIC expressed in µg/mL.

Please tell me: log10(MIC) of C[C@H]1NC(=O)C(CC(=O)O)NC(=O)[C@H](CCCN)NC(=O)CNC(=O)[C@@H](NC(=O)[C@H](CC(=O)O)NC(=O)[C@H](CC(N)=O)NC(=O)[C@H](Cc2c[nH]c3ccccc23)NC(=O)CCCCCC2CCCCC2)[C@@H](C)OC(=O)[C@H](CC(=O)c2ccccc2N)NC(=O)[C@H]([C@@H](C)CC(=O)O)NC(=O)[C@@H](CO)NC(=O)CNC(=O)[C@H](CC(=O)O)NC1=O (single isomer, unassigned) , system Clostridioides difficile?
0.30

For the record "CCCCCCCCc1ccc(C(=O)N[C@@H](Cc2c[nH]c3ccccc23)C(=O)N[C@@H](CC(N)=O)C(=O)N[C@@H](CC(=O)O)C(=O)N[C@@H]2C(=O)NCC(=O)N[C@@H](CCCN)C(=O)N[C@H](CC(=O)O)C(=O)N[C@H](C)C(=O)N[C@@H](CC(=O)O)C(=O)NCC(=O)N[C@H](CO)C(=O)N[C@@H]([C@@H](C)CC(=O)O)C(=O)N[C@@H](CC(=O)c3ccccc3N)C(=O)O[C@@H]2C)cc1" , what value of log10(MIC) is listed for Clostridioides difficile?
0.00

API: value(readout=log10(MIC), system=Clostridioides difficile) for record C[C@H]1NC(=O)C(CC(=O)O)NC(=O)[C@H](CCCN)NC(=O)CNC(=O)[C@@H](NC(=O)[C@H](CC(=O)O)NC(=O)[C@H](CC(N)=O)NC(=O)[C@H](Cc2c[nH]c3ccccc23)NC(=O)CCCCCCc2ccccc2)[C@@H](C)OC(=O)[C@H](CC(=O)c2ccccc2N)NC(=O)[C@H]([C@@H](C)CC(=O)O)NC(=O)[C@@H](CO)NC(=O)CNC(=O)[C@H](CC(=O)O)NC1=O (single isomer, unassigned)
0.90

Reported log10(MIC) for Clostridioides difficile, given CCCCCOc1ccc(/C=C/C(=O)N[C@@H](Cc2c[nH]c3ccccc23)C(=O)N[C@@H](CC(N)=O)C(=O)N[C@@H](CC(=O)O)C(=O)N[C@@H]2C(=O)NCC(=O)N[C@@H](CCCN)C(=O)NC(CC(=O)O)C(=O)N[C@H](C)C(=O)N[C@@H](CC(=O)O)C(=O)NCC(=O)N[C@H](CO)C(=O)N[C@@H]([C@@H](C)CC(=O)O)C(=O)N[C@@H](CC(=O)c3ccccc3N)C(=O)O[C@@H]2C)cc1 (single isomer, unassigned) ?
0.60

Notebook entry, Clostridioides difficile assay: log10(MIC) of "CCCCCCCOc1ccc(-c2ccc(C(=O)N[C@@H](Cc3c[nH]c4ccccc34)C(=O)N[C@@H](CC(N)=O)C(=O)N[C@@H](CC(=O)O)C(=O)N[C@@H]3C(=O)NCC(=O)N[C@@H](CCCN)C(=O)N[C@H](CC(=O)O)C(=O)N[C@H](C)C(=O)N[C@@H](CC(=O)O)C(=O)NCC(=O)N[C@H](CO)C(=O)N[C@@H]([C@@H](C)CC(=O)O)C(=O)N[C@@H](CC(=O)c4ccccc4N)C(=O)O[C@@H]3C)cc2)cc1" = ?
0.30

Checklist item: log10(MIC) tested on Clostridioides difficile, entry "CCCCCc1ccc(/C(C)=C/C(=O)N[C@@H](Cc2c[nH]c3ccccc23)C(=O)N[C@H](CC(N)=O)C(=O)N[C@@H](CC(=O)O)C(=O)N[C@@H]2C(=O)NCC(=O)N[C@@H](CCCN)C(=O)N[C@@H](CC(=O)O)C(=O)N[C@H](C)C(=O)N[C@@H](CC(=O)O)C(=O)NCC(=O)N[C@H](CO)C(=O)N[C@@H]([C@@H](C)CC(=O)O)C(=O)N[C@@H](CC(=O)c3ccccc3N)C(=O)O[C@@H]2C)cc1" , value?
-0.30

Recall the recorded log10(MIC) for "CCCCCCCc1csc(C(=O)N[C@@H](Cc2c[nH]c3ccccc23)C(=O)N[C@@H](CC(N)=O)C(=O)N[C@@H](CC(=O)O)C(=O)N[C@@H]2C(=O)NCC(=O)N[C@@H](CCCN)C(=O)N[C@H](CC(=O)O)C(=O)N[C@H](C)C(=O)N[C@@H](CC(=O)O)C(=O)NCC(=O)N[C@H](CO)C(=O)N[C@@H]([C@@H](C)CC(=O)O)C(=O)N[C@@H](CC(=O)c3ccccc3N)C(=O)O[C@@H]2C)c1" with Clostridioides difficile and state it.
0.30

Fill in the recorded log10(MIC) for this compound, with Clostridioides difficile as test system: C[C@H]1NC(=O)C(CC(=O)O)NC(=O)[C@H](CCCN)NC(=O)CNC(=O)[C@@H](NC(=O)[C@H](CC(=O)O)NC(=O)[C@H](CC(N)=O)NC(=O)[C@H](Cc2c[nH]c3ccccc23)NC(=O)CCCCCc2ccccc2)[C@@H](C)OC(=O)[C@H](CC(=O)c2ccccc2N)NC(=O)[C@H]([C@@H](C)CC(=O)O)NC(=O)[C@@H](CO)NC(=O)CNC(=O)[C@H](CC(=O)O)NC1=O (single isomer, unassigned)
1.20

For the record "CCCCCOc1ccc(-c2ccc(C(=O)N[C@@H](Cc3c[nH]c4ccccc34)C(=O)N[C@@H](CC(N)=O)C(=O)N[C@@H](CC(=O)O)C(=O)N[C@@H]3C(=O)NCC(=O)N[C@@H](CCCN)C(=O)N[C@H](CC(=O)O)C(=O)N[C@H](C)C(=O)N[C@@H](CC(=O)O)C(=O)NCC(=O)N[C@H](CO)C(=O)N[C@@H]([C@@H](C)CC(=O)O)C(=O)N[C@@H](CC(=O)c4ccccc4N)C(=O)O[C@@H]3C)cc2)cc1" , what value of log10(MIC) is listed for Clostridioides difficile?
0.30

Query the reported log10(MIC) for Clostridioides difficile; item: "CCCCCCCCCC(=O)N[C@@H](Cc1c[nH]c2ccccc12)C(=O)N[C@H](CC(N)=O)C(=O)N[C@@H](CC(=O)O)C(=O)N[C@@H]1C(=O)NCC(=O)N[C@@H](CCCN)C(=O)N[C@@H](CC(=O)O)C(=O)N[C@H](C)C(=O)N[C@@H](CC(=O)O)C(=O)NCC(=O)N[C@H](CO)C(=O)N[C@@H]([C@H](C)CC(=O)O)C(=O)N[C@@H](CC(=O)c2ccccc2N)C(=O)O[C@@H]1C"
0.30
